# protocolDescription: protein stability index of a GFP-peptide fusion (yeast GPS) (PSI 1-4); higher = more stable; sorted into four equal gates, so the index is relative within each strain
# conditionDetails: pdr5∆
testReadout: protein stability index

### Prompt // returns reported protein stability index for input YTYLYVRMLASPMLYKV [BRR2]
### Response 1.19

### Prompt # input sequence: STSGDPSEFHCLQDALD [SSN2] ; wanted: its protein stability index
### Response 3.1

### Prompt Given the entry ARLAILKERAKNISSQL [YGR119C/NUP57] , report its measured protein stability index.
### Response 2.77

### Prompt Which value of protein stability index has been reported for TTSEATANDRQINNVHL [RPN4] in the records?
### Response 2.91

### Prompt Given the entry PTETYSDVGGLDKQIEE [RPT5] , report its measured protein stability index.
### Response 3.35

### Prompt Returns the measured protein stability index for the input sequence. Input: VTNDDKSDDDDHTVDEI [SRB8]
### Response 2.8

### Prompt For the sequence shown here, KAASSTRIFQALPRKLR [POP1] , give the reported protein stability index.
### Response 3.36

### Prompt Reported protein stability index for SENVFEGLTYKYPARRI [SSN3] : what is it?
### Response 3

### Prompt What value of protein stability index has been recorded for this entry: PEYAKVGDFLLQYANNA [SIN4]
### Response 2.55

### Prompt Looking for the measured protein stability index of LVIKSGKYTLGYKSTVK [RPL30] , can you help?
### Response 2.96

### Prompt Which protein stability index is listed for ETESSVSNNEANTPSIP [SWI3] ?
### Response 3.12

### Prompt Record request: protein stability index value, item NVSNTFNKTTNIDINNE [YJL041W/NSP1]
### Response 3.28

### Prompt Requested read-out: protein stability index. Entry: ENSYLRGLTPQEFFFHA [RPO21]
### Response 2.64

### Prompt Need protein stability index of LKGIQEFGADWYKVAKN [SWI3] , thanks.
### Response 3.34

### Prompt Which protein stability index value belongs to MASGSTTFTKVAAKWNT [PRP8] ?
### Response 2.52

----------
# protocolDescription: protein stability index of a GFP-peptide fusion (yeast GPS) (PSI 1-4); higher = more stable; sorted into four equal gates, so the index is relative within each strain
# conditionDetails: pdr5∆
Would you mind telling me the reported protein stability index of each entry?
Lab note: record just the number, no unit beside it.

### Prompt Given the entry DPKSPTKRSIAIVFEEI [YMR129W/POM152] , report its measured protein stability index.
### Response 2.97

### Prompt Which protein stability index value belongs to LSFSWAILLIINLTQTY [NUT1] ?
### Response 1.96

### Prompt # input sequence: RVAKGSGTSVFEVEMIL [SRP54] ; wanted: its protein stability index
### Response 3.26

### Prompt Quick one: protein stability index for LRWFELKPKLYYEQFRP [SIR3] ?
### Response 2.98

### Prompt Which protein stability index is reported for this sequence? HPFVFEEVEDQINPTRE [SNF2]
### Response 3.5

### Prompt Requested field: protein stability index. Item: PDGSFEDWSVEELIVDL [RPO26]
### Response 2.06

### Prompt Please report the recorded protein stability index for SLSIKLATLHYQKKQYK [RPN6] .
### Response 1.28

### Prompt What measured protein stability index goes with EENWDDVEVDDDFTNEL [SEM1] ?
### Response 3.13

### Prompt Which protein stability index value is on record for VGVVFGSGAANENPYNN [COR1] ?
### Response 3.23

### Prompt Bench note: what protein stability index did RGHVLQFEWHQNSLLTN [SNF2] show?
### Response 2.3

### Prompt Would you mind telling me what protein stability index value was observed for RDGGLRLGEMERDCVIA [RET1] ?
### Response 3.3

### Prompt Fill in the blank: the reported protein stability index of ELHKEGTISKLENKENG [SMC2] is ____.
### Response 2.61

### Prompt Consider the sequence shown here: TAFNKTRGPFHFRAPSR [RPL16B] What is its recorded protein stability index?
### Response 3.14

### Prompt Which protein stability index value belongs to ITFLIEKAKEMIRLLGS [ECM29] ?
### Response 2.26

### Prompt Please report the recorded protein stability index for KFNAAPEENATEGPSDK [SNF12] .
### Response 3.58

### Prompt Could you share which protein stability index value was measured for IEILVKDNECSSFEENN [RRI2] ?
### Response 3.02

### Prompt Query: protein stability index; subject: ILHGSKSQEQREHSLQL [PRP28]
### Response 2.69

### Prompt Bench note: what protein stability index did DPQQVFDERIKFANQLH [RPN3] show?
### Response 1.97

### Prompt Record request: protein stability index value, item LCAGANNPKIQTKDSVK [IRR1]
### Response 2.99

### Prompt Please give the measured protein stability index for this sequence: IYAGYDDRYGYQLYTSN [PRE9]
### Response 2.14

### Prompt Value lookup for protein stability index; key = NMMNQVGEEETSQKMKK [SRP54]
### Response 3.39

These data points were gathered from the supplement of paper PMC9732359.
